- System: HCT-15
- EXPERIMENT: Concentration required for 50% growth inhibition of human HCT-15 cancer cell lines after 3 days of culture
- Format: functional, cell-based
- CONDITION_SUMMARY: HCT-15, 72 h
# reported pIC50; entries follow
To interpret pIC50, take it as minus log10 of a concentration measured in moles per litre.

Guide cases for pIC50, answers given:
C[C@@H]1C[C@@]2(NC(=O)CS2)C2(O)O[C@@H]3C[C@@]4(CO)[C@@H](CC[C@@H]5[C@@H]4CC[C@]4(C)[C@@H](C6=CC(=O)OC6)CC[C@]54CO)C[C@H]3O[C@@H]2O1 (stereo partly drawn) : 7.62
C[C@@H]1C[C@@]2(N[C@@H](CC(=O)c3ccccc3)CS2)C2(O)O[C@@H]3C[C@@]4(C=O)[C@@H](CC[C@@H]5[C@@H]4CC[C@]4(C)[C@@H](C6=CC(=O)OC6)CC[C@]54CO)C[C@H]3O[C@@H]2O1 (stereo partly drawn) : 7.04
Cc1ccc(S(=O)(=O)OC[C@]23C[C@H]4OC5(O)[C@@H](O[C@H](C)C[C@@]56N=C(N)CS6)O[C@@H]4C[C@@H]2CC[C@@H]2[C@@H]3CC[C@]3(C)[C@@H](C4=CC(=O)OC4)CC[C@]23CO)cc1 (stereo partly drawn) : 5.24
C[C@@H]1C[C@@]2(NC(=O)CS2)C2(O)O[C@@H]3C[C@@]4(COC(=O)c5ccccc5)[C@@H](CC[C@@H]5[C@@H]4CC[C@]4(C)[C@@H](C6=CC(=O)OC6)CC[C@]54CO)C[C@H]3O[C@@H]2O1 (stereo partly drawn) : 5.44

Please turn your attention to the following entry.
So for C[C@@H]1C[C@@]2(N=C(N)CS2)C2(O)O[C@@H]3C[C@@]4(C=O)[C@@H](CC[C@@H]5[C@@H]4CC[C@]4(C)[C@@H](C6=CC(=O)OC6)CC[C@]54CO)C[C@H]3O[C@@H]2O1 (stereo partly drawn) , the logged pIC50 turned out to be 7.57

====

Below, each of the compounds is paired with its reported pIC50 value.
- Tested on: HCT-15
- EXPERIMENT: Concentration required for 50% growth inhibition of human HCT-15 cancer cell lines after 3 days of culture
- Format: functional, cell-based
- CONDITION_SUMMARY: HCT-15, 72 h
Note: pIC50 values are expressed as the negative base-10 logarithm of concentration in M.

Sample records with pIC50:
C[C@@H]1C[C@@]2(N[C@@H](CC(=O)c3ccccc3)CS2)C2(O)O[C@@H]3C[C@@]4(CO)[C@@H](CC[C@@H]5[C@@H]4CC[C@]4(C)[C@@H](C6=CC(=O)OC6)CC[C@]54CO)C[C@H]3O[C@@H]2O1 (some centres undefined) : 7.36
CC(=O)OC[C@]12C[C@H]3OC4(O)[C@@H](O[C@H](C)C[C@@]45N=C(N)CS5)O[C@@H]3C[C@@H]1CC[C@@H]1[C@@H]2CC[C@]2(C)[C@@H](C3=CC(=O)OC3)CC[C@]12CO (some centres undefined) : 5.38
C[C@@H]1C[C@@]2(N=C(N)CS2)[C@]2(O)O[C@@H]3C[C@@]4(C=O)[C@@H](CC[C@@H]5[C@@H]4CC[C@]4(C)[C@@H](C6=CC(=O)OC6)CC[C@]54O)C[C@H]3O[C@@H]2O1 : 7.55

Here is the next item to consider.
Note to self: pIC50 recorded for CC(O)CCC(=O)OC[C@]12C[C@H]3OC4(O)[C@@H](O[C@H](C)C[C@@]45NC(=O)CS5)O[C@@H]3C[C@@H]1CC[C@@H]1[C@@H]2CC[C@]2(C)[C@@H](C3=CC(=O)OC3)CC[C@]12CO (some centres undefined) was 5.82

These data points were gathered from ChEMBL document CHEMBL1144441.
